Data provenance: ChEMBL document CHEMBL3864193

experiment summary: cells
study conditions: Homo sapiens, MCF7, 72 h
Description: Cytotoxicity against human MCF7 cells after 72 hrs by MTT assay
Kindly supply the reported pIC50 values for the records listed here.
Friendly reminder that pIC50 comes from taking -log10 of the concentration in mol/L.

Sure, the documented pIC50 for CNC(=O)c1cc(Oc2ccc(NC(=O)c3cc(-c4ccc(C)cc4)ncn3)cc2F)ccn1 is 4.72

Sure, the documented pIC50 for CNC(=O)c1cc(Oc2ccc(NC(=O)c3nccc(-c4ccc(C)cc4)n3)cc2)ccn1 is 4.35

Sure, the documented pIC50 for CCc1ccc(-c2cc(C(=O)Nc3ccc(Oc4ccnc(C(=O)NC)c4)cc3)ncn2)cc1 is 5.20

Sure, the documented pIC50 for CNC(=O)c1cc(Oc2ccc(NC(=O)c3nccc(-c4ccccc4)n3)cc2)ccn1 is 4.41

Sure, the documented pIC50 for CNC(=O)c1cc(Oc2ccc(NC(=O)c3cc(-c4ccc(OC)cc4)ncn3)cc2)ccn1 is 4.53
